Molecular target: PRMT5/MEP50 (Homo sapiens)
Construct: Flag-PRMT5; made in house; host or cells: Spodoptera frugiperda (SF9), baculovirus
Assay: PRMT5 Biochemical Assay (PRMT5/MEP50 enzyme assay on histone H4 peptide substrate, 3H-SAM Flashplate)
Conditions: PRMT5 biochemical assay; read-out: Biochemical IC50
Source text: S-adenosylmethionine (SAM), S-adenosylhomocysteine (SAH), bicine, KCl, Tween20, dimethylsulfoxide (DMSO), bovine skin gelatin (BSG), and Tris(2-carboxyethyl)phosphine hydrochloride solution (TCEP) were purchased from Sigma-Aldrich at the highest level of purity possible. ^3H-SAM was purchase from American Radiolabeled Chemicals with a specific activity of 80 Ci/mmol. 384-well streptavidin Flashplates were purchased from PerkinElmer. […]
Listed here are molecules together with their documented IC50.

Solved cases (6 shown):
O=C(CC1NC(N2CCc3ccccc3C2)=NC1=O)Nc1ccccc1 (stereo not shown)
1 to 10 µM
CN(C)c1cccc2c(S(=O)(=O)NCC3CCN(Cc4ccco4)CC3)cccc12
0.101 to 1 µM
CN(CCc1c[nH]cn1)CCN(C)C[C@H]1O[C@@H](n2cnc3c(N)ncnc32)[C@H](O)[C@@H]1O
0.101 to 1 µM
Cc1ccc(NC(=O)CC2NC(N3CCN(Cc4ccccc4)CC3)=NC2=O)cc1 (stereo not shown)
1 to 10 µM
CCOc1c(C)cc(S(=O)(=O)NCC2CCN(Cc3cccc4c3OCO4)CC2)cc1C
0.101 to 1 µM
Cc1ccc(C(=O)CC2NC(N3CCN(c4cccc(F)c4)CC3)=NC2=O)cc1 (stereo not shown)
1 to 10 µM

Requested field: IC50. Item: CC1CCCCN1CCCNCCN(C)C[C@H]1O[C@@H](n2cnc3c(N)ncnc32)[C@H](O)[C@@H]1O (stereo partly shown)
0.101 to 1 µM

Requested field: IC50. Item: `CN(C)c1cccc2c(S(=O)(=O)NC3CN(Cc4ccccc4)C3)cccc12`
< 0.1 µM

Requested field: IC50. Item: CCOC(=O)c1ccc(NC(=O)CC2NC(N3CCN(C)CC3)=NC2=O)cc1 (stereo not shown)
10 to 50 µM

---

Molecular target: PRMT5/MEP50 (Homo sapiens, UniProt O14744)
Construct: Flag-PRMT5; made in house; host or cells: Spodoptera frugiperda (SF9), baculovirus
Sequence (O14744 with tags, fused parts or gaps): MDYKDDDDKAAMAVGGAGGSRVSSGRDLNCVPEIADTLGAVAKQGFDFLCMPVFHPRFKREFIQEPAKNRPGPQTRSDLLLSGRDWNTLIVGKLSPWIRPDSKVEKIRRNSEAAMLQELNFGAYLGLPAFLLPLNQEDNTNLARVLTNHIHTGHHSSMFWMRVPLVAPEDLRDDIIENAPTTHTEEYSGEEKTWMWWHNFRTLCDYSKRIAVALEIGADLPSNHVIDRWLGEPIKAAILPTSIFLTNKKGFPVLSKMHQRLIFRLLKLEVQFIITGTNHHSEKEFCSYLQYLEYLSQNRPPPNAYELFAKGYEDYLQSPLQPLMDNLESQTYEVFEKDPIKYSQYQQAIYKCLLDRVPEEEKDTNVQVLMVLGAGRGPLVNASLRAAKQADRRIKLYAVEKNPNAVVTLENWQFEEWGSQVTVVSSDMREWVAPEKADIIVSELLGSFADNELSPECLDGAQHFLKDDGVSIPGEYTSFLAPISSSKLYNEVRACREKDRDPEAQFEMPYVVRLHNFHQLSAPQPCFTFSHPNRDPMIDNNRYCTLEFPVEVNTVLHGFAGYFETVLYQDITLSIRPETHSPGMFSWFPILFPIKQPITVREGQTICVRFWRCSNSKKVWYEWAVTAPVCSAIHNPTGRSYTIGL
Sequence (Q9BQA1 with tags, fused parts or gaps partner limits assumed): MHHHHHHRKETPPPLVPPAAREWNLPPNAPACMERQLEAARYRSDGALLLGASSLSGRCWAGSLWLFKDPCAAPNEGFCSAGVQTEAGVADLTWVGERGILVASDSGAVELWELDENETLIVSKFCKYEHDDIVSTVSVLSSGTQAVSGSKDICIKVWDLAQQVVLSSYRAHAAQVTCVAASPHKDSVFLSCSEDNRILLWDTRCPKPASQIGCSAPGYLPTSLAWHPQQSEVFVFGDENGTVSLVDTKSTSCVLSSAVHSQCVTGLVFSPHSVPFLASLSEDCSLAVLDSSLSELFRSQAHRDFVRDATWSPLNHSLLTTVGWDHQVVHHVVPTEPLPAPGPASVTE
Experiment: PRMT5 Biochemical Assay (PRMT5/MEP50 enzyme assay on histone H4 peptide substrate, 3H-SAM Flashplate)
Settings: PRMT5 biochemical assay; read-out: Biochemical IC50
Source text: S-adenosylmethionine (SAM), S-adenosylhomocysteine (SAH), bicine, KCl, Tween20, dimethylsulfoxide (DMSO), bovine skin gelatin (BSG), and Tris(2-carboxyethyl)phosphine hydrochloride solution (TCEP) were purchased from Sigma-Aldrich at the highest level of purity possible. ^3H-SAM was purchase from American Radiolabeled Chemicals with a specific activity of 80 Ci/mmol. 384-well streptavidin Flashplates were purchased from PerkinElmer. […]
pIC50: −log10 of the molar value.
Listed here are molecules together with their documented pIC50.

Solved cases (3 shown):
CCc1ccc(NC(=O)CC2NC(N3CCN(CC)CC3)=NC2=O)cc1 (stereo not shown) [Compound 19-14]
5.00 to 6.00
CC(=O)N1CC(Nc2cc(C(=O)NC[C@H](O)CN3Cc4ccccc4C3)ncn2)C1 [Compound 5-11]
> 7.00
Cc1ccc(C(=O)CC2NC(N(C)CCN(C)c3ccccc3)=NC2=O)cc1 (stereo not shown) [Compound 45-14]
4.30 to 5.00

Then there is this molecule:
Lookup: pIC50 / PRMT5/MEP50 (Homo sapiens, UniProt O14744) / NCCN(CCCC(=O)O)C[C@H]1O[C@@H](n2cnc3c(N)ncnc32)[C@H](O)[C@@H]1O [Compound 31-1]
> 7.00

---

target: PRMT5/MEP50 (Homo sapiens); construct: Flag-PRMT5; made in house; host or cells: Spodoptera frugiperda (SF9), baculovirus; assay: PRMT5 Biochemical Assay (PRMT5/MEP50 enzyme assay on histone H4 peptide substrate, 3H-SAM Flashplate); settings: PRMT5 biochemical assay; read-out: Biochemical IC50
pIC50: −log10 of the molar value.
Listed here are molecules together with their documented pIC50.

COc1ccc(N2CCN(C3=NC(=O)C(CC(=O)Nc4ccccc4)N3)CC2)cc1 (stereo not shown)
4.30 to 5.00
CCN1CCN(C2=NC(=O)C(CC(=O)Nc3ccc(OC)cc3)N2)CC1 (stereo not shown)
5.00 to 6.00

Requested field: pIC50. Item: O=C(CC1NC(N2CCC(O)(c3ccccc3)CC2)=NC1=O)Nc1ccc(Cl)cc1 (stereo not shown)
6.00 to 7.00

Requested field: pIC50. Item: `CC(C)N(CCCN)C[C@H]1O[C@@H](n2cnc3c(N)ncnc32)[C@H](O)[C@@H]1O`
6.00 to 7.00

Requested field: pIC50. Item: `CCN(CCc1ccc(Cl)cc1)CCN(C)C[C@H]1O[C@@H](n2cnc3c(N)ncnc32)[C@H](O)[C@@H]1O`
6.00 to 7.00

Requested field: pIC50. Item: O=C(CC1NC(N2CCN(c3ccccc3)CC2)=NC1=O)c1ccccc1Br (stereo not shown)
6.00 to 7.00

Requested field: pIC50. Item: O=C1CC(NS(=O)(=O)c2cccc3ccccc23)CN1c1ccccc1 (stereo not shown)
6.00 to 7.00

Requested field: pIC50. Item: COc1ccccc1C(=O)CC1NC(N2CCC(O)(c3ccccc3)CC2)=NC1=O (stereo not shown)
6.00 to 7.00

Requested field: pIC50. Item: CN1CCC(N(C)CCN(C)C[C@H]2O[C@@H](n3cnc4c(N)ncnc43)[C@H](O)[C@@H]2O)C1 (stereo partly shown)
6.00 to 7.00

Requested field: pIC50. Item: `CN(CCNCCc1c(Cl)cccc1Cl)C[C@H]1O[C@@H](n2cnc3c(N)ncnc32)[C@H](O)[C@@H]1O`
> 7.00

Requested field: pIC50. Item: `CN(CCNCc1ccc(Cl)cc1Cl)C[C@H]1O[C@@H](n2cnc3c(N)ncnc32)[C@H](O)[C@@H]1O`
6.00 to 7.00

Requested field: pIC50. Item: `CC(C)(C)C(=O)N1CCN(c2nc(NC3COC3)cc(C(=O)NC[C@H](O)CN3CCc4ccccc4C3)n2)CC1`
> 7.00

Requested field: pIC50. Item: CC(NCCN(C)C[C@H]1O[C@@H](n2cnc3c(N)ncnc32)[C@H](O)[C@@H]1O)c1ccccc1 (stereo partly shown)
6.00 to 7.00

Requested field: pIC50. Item: `Nc1ncnc2c1ncn2[C@@H]1O[C@H](CSCCCC(=O)O)[C@@H](O)[C@H]1O`
6.00 to 7.00

Requested field: pIC50. Item: `O=C(NC[C@H](O)CN1CCc2ccccc2C1)c1cc(NC2CN(C(=O)C3CCC3)C2)ncn1`
> 7.00

Requested field: pIC50. Item: O=C(CC1NC(N2CCN(c3ccccc3)CC2)=NC1=O)Nc1ccc(Cl)cc1Cl (stereo not shown)
6.00 to 7.00

---

Listed here are compounds together with their documented IC50.
molecular target: PRMT5/MEP50 (Homo sapiens); construct: Flag-PRMT5; made in house; host or cells: Spodoptera frugiperda (SF9), baculovirus; test: PRMT5 Biochemical Assay (PRMT5/MEP50 enzyme assay on histone H4 peptide substrate, 3H-SAM Flashplate); conditions: PRMT5 biochemical assay; read-out: Biochemical IC50

Solved cases (8 shown):
CC(C)N(CCN)C[C@H]1O[C@@H](n2cnc3c(N)ncnc32)[C@H](O)[C@@H]1O
101 to 1000 nM
CN(CCNC1CCCC1)C[C@H]1O[C@@H](n2cnc3c(N)ncnc32)[C@H](O)[C@@H]1O
101 to 1000 nM
O=C(NC[C@H](O)CN1Cc2ccccc2C1)c1cc(NC2COC2)nc(N2CCOCC2)n1
< 100 nM
Cc1ccc(C(=O)CC2NC(N3CCN(c4ccncc4)CC3)=NC2=O)cc1 (centres unmarked)
10000 to 50000 nM
Nc1ncnc2c1ncn2[C@@H]1O[C@H](CN2CCCN(c3ccccn3)CC2)[C@@H](O)[C@H]1O
101 to 1000 nM
CC(=O)Nc1ccc(NC(=O)CC2NC(N3CCN(c4ccccc4)CC3)=NC2=O)cc1 (centres unmarked)
10000 to 50000 nM
Cc1cccc(CN(C)CCN(C)C[C@H]2O[C@@H](n3cnc4c(N)ncnc43)[C@H](O)[C@@H]2O)c1
101 to 1000 nM
CN(CCNCc1ccc(Cl)cc1)C[C@H]1O[C@@H](n2cnc3c(N)ncnc32)[C@H](O)[C@@H]1O
101 to 1000 nM

Lookup: IC50 / PRMT5/MEP50 (Homo sapiens) / `CCN(CC)CCN(C)C[C@H]1O[C@@H](n2cnc3c(N)ncnc32)[C@H](O)[C@@H]1O`
101 to 1000 nM

Lookup: IC50 / PRMT5/MEP50 (Homo sapiens) / O=C(CC1NC(N2CCN(c3ccccc3)CC2)=NC1=O)NC1CCCCC1 (centres unmarked)
10000 to 50000 nM

Lookup: IC50 / PRMT5/MEP50 (Homo sapiens) / `O=C(NC[C@H](O)CN1Cc2ccccc2C1)c1cncc(NC2CCOCC2)c1`
101 to 1000 nM

Lookup: IC50 / PRMT5/MEP50 (Homo sapiens) / CN1CCC(NC2=NN(C)CC(C(=O)NC[C@H](O)CN3CCc4ccccc4C3)C2)C1 (some centres unmarked)
< 100 nM

Lookup: IC50 / PRMT5/MEP50 (Homo sapiens) / `CC(=O)N1CCC(Nc2cc(C(=O)NC[C@@H](O)CN3CCc4ccccc4C3(C)C)ccn2)CC1`
101 to 1000 nM

Lookup: IC50 / PRMT5/MEP50 (Homo sapiens) / Cc1cc(Cl)ccc1NC(=O)CC1NC(N2CCN(c3ccccc3)CC2)=NC1=O (centres unmarked)
1000 to 10000 nM

Lookup: IC50 / PRMT5/MEP50 (Homo sapiens) / COc1ccccc1C(=O)CC1NC(N2CCN(c3ccccc3)CC2)=NC1=O (centres unmarked)
101 to 1000 nM

Lookup: IC50 / PRMT5/MEP50 (Homo sapiens) / `CC(=O)N1CCC(Nc2cc(C(=O)NC[C@H](O)CNCc3ccccc3)ccn2)CC1`
101 to 1000 nM

Lookup: IC50 / PRMT5/MEP50 (Homo sapiens) / `CCCCOC(=O)c1ccc(NC(=O)NCCNC[C@H]2O[C@@H](n3cnc4c(N)ncnc43)[C@H](O)[C@@H]2O)cc1`
< 100 nM

Lookup: IC50 / PRMT5/MEP50 (Homo sapiens) / `CN(CCNCc1ccc(OC(F)F)cc1)C[C@H]1O[C@@H](n2cnc3c(N)ncnc32)[C@H](O)[C@@H]1O`
101 to 1000 nM

Lookup: IC50 / PRMT5/MEP50 (Homo sapiens) / `Nc1ncnc2c1ncn2[C@@H]1O[C@H](CN(CCCC(=O)OCc2ccccc2)CCNCCc2ccc(Cl)cc2)[C@@H](O)[C@H]1O`
< 100 nM

Lookup: IC50 / PRMT5/MEP50 (Homo sapiens) / CCN1CCN(C2=NC(=O)C(CC(=O)Nc3ccc(C(C)=O)cc3)N2)CC1 (centres unmarked)
1000 to 10000 nM

Lookup: IC50 / PRMT5/MEP50 (Homo sapiens) / `NCCNC[C@H]1O[C@@H](n2cnc3c(N)ncnc32)[C@H](O)[C@@H]1O`
101 to 1000 nM

Lookup: IC50 / PRMT5/MEP50 (Homo sapiens) / `Cc1cccc(Cn2ccnc2CN)c1`
1000 to 10000 nM

Lookup: IC50 / PRMT5/MEP50 (Homo sapiens) / O=C(CC1NC(N2CCN(c3ccccc3)CC2)=NC1=O)Nc1ccccc1Cl (centres unmarked)
10000 to 50000 nM

Lookup: IC50 / PRMT5/MEP50 (Homo sapiens) / `O=S(=O)(NCC1CCN(Cc2ccco2)CC1)c1cccc2c(Cl)cccc12`
101 to 1000 nM

Lookup: IC50 / PRMT5/MEP50 (Homo sapiens) / CN(C)c1cccc2c(S(=O)(=O)NC3CC(=O)N(c4ccccc4Cl)C3)cccc12 (centres unmarked)
101 to 1000 nM

Lookup: IC50 / PRMT5/MEP50 (Homo sapiens) / `N=C(NC[C@H]1O[C@@H](n2cnc3c(N)ncnc32)[C@H](O)[C@@H]1O)c1ccccc1`
101 to 1000 nM

Lookup: IC50 / PRMT5/MEP50 (Homo sapiens) / Cc1ccccc1C(=O)CC1NC(N2CCN(c3ccccc3)CC2)=NC1=O (centres unmarked)
101 to 1000 nM

Lookup: IC50 / PRMT5/MEP50 (Homo sapiens) / `CCOc1c(C)cc(S(=O)(=O)NCC2CCN(Cc3ccc4ccccc4c3)CC2)cc1C`
101 to 1000 nM

Lookup: IC50 / PRMT5/MEP50 (Homo sapiens) / `COc1cccc(CN(C)CCN(C)C[C@H]2O[C@@H](n3cnc4c(N)ncnc43)[C@H](O)[C@@H]2O)c1`
101 to 1000 nM

Lookup: IC50 / PRMT5/MEP50 (Homo sapiens) / CN(CCN1CCC(Oc2ccccn2)CC1)C[C@H]1OC(n2cnc3c(N)ncnc32)[C@H](O)[C@@H]1O (some centres unmarked)
101 to 1000 nM

Lookup: IC50 / PRMT5/MEP50 (Homo sapiens) / `O=S(=O)(NCC1CCN(Cc2ccco2)CC1)c1ccc(Oc2ccccc2)cc1`
101 to 1000 nM

Lookup: IC50 / PRMT5/MEP50 (Homo sapiens) / `CCOc1c(C)cc(S(=O)(=O)NCC2CCN(Cc3ccc4ncccc4c3)CC2)cc1C`
101 to 1000 nM
